assay: Cytotoxicity against HEK293T cells assessed as reduction in cell viability; assay type: toxicity, cell-based, HEK-293T; conditions: human
Mark MET only when CC50 stays strictly below 9 µM. Values equal to the cut-off are NOT MET.

Inquiry: Does the reported CC50 of `CC(=O)N1/C(=C/c2ccc(NC(C)C)cc2)C(=O)c2ccccc21` stay below 9 µM?
Reply text: NOT MET

Inquiry: Does the reported CC50 of `CC(=O)N1/C(=C/c2ccc(-c3ccc(Cl)cc3)cc2)C(=O)c2ccccc21` stay below 9 µM?
Reply text: MET

Inquiry: Does the reported CC50 of `CC(=O)N1/C(=C/c2cccc(-c3ccc(Cl)cc3)c2)C(=O)c2ccccc21` stay below 9 µM?
Reply text: MET

Inquiry: Does the reported CC50 of `CC(=O)N1/C(=C/c2cccc(-c3cnc4ccccc4c3)c2)C(=O)c2ccccc21` stay below 9 µM?
Reply text: NOT MET

Inquiry: Does the reported CC50 of `CC(=O)N1/C(=C/c2ccc(-c3ccc(OC(F)(F)F)cc3)cc2)C(=O)c2ccccc21` stay below 9 µM?
Reply text: MET

Inquiry: Does the reported CC50 of `CC(=O)N1/C(=C/c2ccccc2)C(=O)c2cc(-c3ccccc3)ccc21` stay below 9 µM?
Reply text: NOT MET

* * *

assay: Selectivity index, ratio of GI50 for cytotoxicity against human HeLa cells to MIC for antitubercular activity against active stage of Mycobacterium tuberculosis H37Ra; assay type: toxicity, cell-based; settings: read-out: Selectivity Index
endpoint: selectivity ratio
Write no unit; give the number alone.

Per the records, this molecule ( `CCOC(=O)c1ccsc1NC(=O)[C@@H]1CCCN1` ) has selectivity ratio equal to 3.88

Per the records, this molecule ( `O=C1CC[C@@H](COC(=O)c2ccsc2NC(=O)[C@@H]2CCCN2)N1` ) has selectivity ratio equal to 20.2

Per the records, this molecule ( `COC(=O)c1sccc1NC(=O)[C@@H]1CCCN1` ) has selectivity ratio equal to 5.7

Per the records, this molecule ( `O=C(OCC(F)(F)F)c1ccsc1NC(=O)[C@@H]1CCCN1` ) has selectivity ratio equal to 13.3

Per the records, this molecule ( `COC(=O)c1ccsc1NC(=O)[C@H]1CCCN1` ) has selectivity ratio equal to 8.43

Per the records, this molecule ( `O=C(OC1CCCCC1)c1ccsc1NC(=O)[C@@H]1CCCN1` ) has selectivity ratio equal to 3.76

Per the records, this molecule ( `C=CCOC(=O)c1ccsc1NC(=O)[C@@H]1CCCN1` ) has selectivity ratio equal to 4.08

* * *

Please respond with reported GI50 for every item in the list.
test: Cytotoxicity against HUVEC cells assessed as cell growth inhibition; type: toxicity, cell-based; details: human
Provide the reading as a plain figure in µg/mL.

Per the records, this compound ( `COC(=O)c1ccsc1NC(=O)[C@H]1CCCN1` ) has GI50 equal to 95.8

Per the records, this compound ( `O=C1CC[C@@H](COC(=O)c2ccsc2NC(=O)[C@@H]2CCCN2)N1` ) has GI50 equal to 88.6

Per the records, this compound ( `C=CCOC(=O)c1ccsc1NC(=O)[C@@H]1CCCN1` ) has GI50 equal to 149

Per the records, this compound ( `COC(=O)c1sccc1NC(=O)[C@@H]1CCCN1` ) has GI50 equal to 91.3

Per the records, this compound ( `O=C(OC1CCCCC1)c1ccsc1NC(=O)[C@@H]1CCCN1` ) has GI50 equal to 137
